conditions: in n-propanol, 303.5 K
OBSERVATION_TYPE: solubility (mole fraction)
I only need the number, thanks.

Input line: Data request, read-out solubility (mole fraction), for "CCCCCCCCCCCC(=O)O"
Output line: 0.406

----------
details: in isopropanol, 308.1 K
OBSERVATION_TYPE: solubility (mole fraction)

Input line: Endpoint output: solubility (mole fraction) of "CCCCCCCCCCCC(=O)O" . Value?
Output line: 0.568

----------
conditions: in isopropanol, 312.6 K
OBSERVATION_TYPE: solubility (mole fraction)
// response body must contain only the number

Input line: Entry "CCCCCCCCCCCC(=O)O" has what solubility (mole fraction)?
Output line: 0.777

----------
details: in acetone, 315.2 K
OBSERVATION_TYPE: solubility (mole fraction)
Give the figure only, with no unit attached.

Input line: Tell me the measured solubility (mole fraction) of "CCCCCCCCCCCC(=O)O" , please.
Output line: 0.895

----------
conditions: in n-hexane, 289.7 K
OBSERVATION_TYPE: solubility (mole fraction)
Lab note: record the figure alone, no unit after it.

Input line: Need solubility (mole fraction) of "CCCCCCCCCCCC(=O)O" , thanks.
Output line: 0.108

----------
details: in acetone, 293.3 K
OBSERVATION_TYPE: solubility (mole fraction)
Quick one: just the number, no unit, thanks!

Input line: Query (compound): "CCCCCCCCCCCC(=O)O" ; field requested: solubility (mole fraction)
Output line: 0.146

----------
conditions: in isopropanol, 311.2 K
OBSERVATION_TYPE: solubility (mole fraction)

Input line: Form field: reported solubility (mole fraction) of "CCCCCCCCCCCC(=O)O"
Output line: 0.712

----------
conditions: in n-hexane, 301.8 K
OBSERVATION_TYPE: solubility (mole fraction)
Answer with the value's number alone.

Input line: Find the recorded solubility (mole fraction) belonging to "CCCCCCCCCCCC(=O)O" and report it.
Output line: 0.38

----------
conditions: in 1-bromopropane, 304.3 K
OBSERVATION_TYPE: solubility (mole fraction)

Input line: Given the entry "CCCCCCCCCCCC(=O)O" , report its measured solubility (mole fraction).
Output line: 0.473

----------
conditions: in isopropanol, 314.9 K
OBSERVATION_TYPE: solubility (mole fraction)
Answer as a number with no unit attached.

Input line: Which measured solubility (mole fraction) value corresponds to "CCCCCCCCCCCC(=O)O" ?
Output line: 0.896

----------
settings: in n-hexane, 314.2 K
OBSERVATION_TYPE: solubility (mole fraction)
Output: the number by itself.

Input line: Param item = "CCCCCCCCCCCC(=O)O" ; retrieve measured solubility (mole fraction).
Output line: 0.858

----------
conditions: in acetone, 306.7 K
OBSERVATION_TYPE: solubility (mole fraction)
No unit in the answer, only the number.

Input line: Entry under review: "CCCCCCCCCCCC(=O)O" . Reported solubility (mole fraction)?
Output line: 0.512

----------
settings: in acetone, 290.1 K
OBSERVATION_TYPE: solubility (mole fraction)
Enter the number alone.

Input line: What measured solubility (mole fraction) goes with "CCCCCCCCCCCC(=O)O" ?
Output line: 0.107

----------
conditions: in isopropanol, 309.8 K
OBSERVATION_TYPE: solubility (mole fraction)
Give your answer as a number; write no unit.

Input line: Could you share which solubility (mole fraction) value was measured for "CCCCCCCCCCCC(=O)O" ?
Output line: 0.648

----------
conditions: in 1-bromopropane, 309.3 K
OBSERVATION_TYPE: solubility (mole fraction)
A bare number is all that is needed in reply.

Input line: What does the record list as solubility (mole fraction) for "CCCCCCCCCCCC(=O)O" ?
Output line: 0.645

----------
details: in n-hexane, 279.9 K
OBSERVATION_TYPE: solubility (mole fraction)
Please give the numeric answer without any surrounding text.

Input line: // query solubility (mole fraction) value for entry "CCCCCCCCCCCC(=O)O"
Output line: 0.0292

----------
settings: in n-propanol, 299.9 K
OBSERVATION_TYPE: solubility (mole fraction)

Input line: Look at this compound and give its reported solubility (mole fraction). "CCCCCCCCCCCC(=O)O"
Output line: 0.318

----------
conditions: in acetone, 298 K
OBSERVATION_TYPE: solubility (mole fraction)
Output: the number by itself.

Input line: Bench note: what solubility (mole fraction) did "CCCCCCCCCCCC(=O)O" show?
Output line: 0.224

----------
conditions: in acetone, 312 K
OBSERVATION_TYPE: solubility (mole fraction)
Respond numerically, and do not add a unit to the figure.

Input line: Look up solubility (mole fraction): "CCCCCCCCCCCC(=O)O"
Output line: 0.735

----------
conditions: in isopropanol, 297.1 K
OBSERVATION_TYPE: solubility (mole fraction)
Enter the number alone.

Input line: What value of solubility (mole fraction) has been reported for the following compound? "CCCCCCCCCCCC(=O)O"
Output line: 0.283

----------
conditions: in isopropanol, 314.1 K
OBSERVATION_TYPE: solubility (mole fraction)
Give the figure by itself; no unit, no explanation.

Input line: Recorded solubility (mole fraction) of "CCCCCCCCCCCC(=O)O" , please.
Output line: 0.842

----------
conditions: in acetone, 299.9 K
OBSERVATION_TYPE: solubility (mole fraction)
Reply with just the number.

Input line: Given "CCCCCCCCCCCC(=O)O" , state its recorded solubility (mole fraction).
Output line: 0.283

----------
settings: in trichloroethylene, 310.5 K
OBSERVATION_TYPE: solubility (mole fraction)
Just the number.

Input line: Item "CCCCCCCCCCCC(=O)O" has what recorded solubility (mole fraction)?
Output line: 0.725

----------
conditions: in trichloroethylene, 282 K
OBSERVATION_TYPE: solubility (mole fraction)
A bare number is all that is needed in reply.

Input line: Recorded solubility (mole fraction) of "CCCCCCCCCCCC(=O)O" , please.
Output line: 0.144

----------
settings: in 1-bromopropane, 293.1 K
OBSERVATION_TYPE: solubility (mole fraction)
// return just the number, without any unit appended

Input line: Recorded solubility (mole fraction) of "CCCCCCCCCCCC(=O)O" , please.
Output line: 0.239

----------
conditions: in 1-bromopropane, 312.5 K
OBSERVATION_TYPE: solubility (mole fraction)
// return just the number, without any unit appended

Input line: Need solubility (mole fraction) of "CCCCCCCCCCCC(=O)O" , thanks.
Output line: 0.775

----------
conditions: in 1-bromopropane, 310.5 K
OBSERVATION_TYPE: solubility (mole fraction)
Enter the number alone.

Input line: Record request: solubility (mole fraction) value, item "CCCCCCCCCCCC(=O)O"
Output line: 0.709

----------
conditions: in trichloroethylene, 296 K
OBSERVATION_TYPE: solubility (mole fraction)
Enter the number alone.

Input line: Fill in the blank: the reported solubility (mole fraction) of "CCCCCCCCCCCC(=O)O" is ____.
Output line: 0.337

----------
conditions: in n-hexane, 296.4 K
OBSERVATION_TYPE: solubility (mole fraction)
Give the figure only, with no unit attached.

Input line: Please give the measured solubility (mole fraction) for this compound: "CCCCCCCCCCCC(=O)O"
Output line: 0.223

----------
settings: in n-propanol, 312.1 K
OBSERVATION_TYPE: solubility (mole fraction)
Respond with the number and no other words.

Input line: Sample "CCCCCCCCCCCC(=O)O" — what was its solubility (mole fraction)?
Output line: 0.749

----------
conditions: in n-propanol, 301.5 K
OBSERVATION_TYPE: solubility (mole fraction)
A bare number is all that is needed in reply.

Input line: Would you mind telling me what solubility (mole fraction) value was observed for "CCCCCCCCCCCC(=O)O" ?
Output line: 0.353

----------
conditions: in n-hexane, 293.9 K
OBSERVATION_TYPE: solubility (mole fraction)
The reply should be a number, written without any unit.

Input line: Record request: solubility (mole fraction) value, item "CCCCCCCCCCCC(=O)O"
Output line: 0.171

----------
settings: in n-propanol, 289.6 K
OBSERVATION_TYPE: solubility (mole fraction)
Answer as a number with no unit attached.

Input line: Which solubility (mole fraction) reading was recorded for the compound "CCCCCCCCCCCC(=O)O" ?
Output line: 0.153

----------
conditions: in n-hexane, 300.1 K
OBSERVATION_TYPE: solubility (mole fraction)

Input line: Query: solubility (mole fraction); subject: "CCCCCCCCCCCC(=O)O"
Output line: 0.322

----------
conditions: in isopropanol, 282.7 K
OBSERVATION_TYPE: solubility (mole fraction)

Input line: # lookup: solubility (mole fraction) of "CCCCCCCCCCCC(=O)O"
Output line: 0.104

----------
settings: in n-propanol, 309.9 K
OBSERVATION_TYPE: solubility (mole fraction)
Number only, no unit.

Input line: Query (molecule): "CCCCCCCCCCCC(=O)O" ; field requested: solubility (mole fraction)
Output line: 0.644

----------
details: in acetone, 305.1 K
OBSERVATION_TYPE: solubility (mole fraction)
Give your answer as a number; write no unit.

Input line: I have this compound here, "CCCCCCCCCCCC(=O)O" , and I need its recorded solubility (mole fraction).
Output line: 0.449
